# Tested on: OE33 cells
# method summary: Epigenetic compound library screen (CellTiter-Glo, 72 h)
# Format: cell-based, human
# run conditions: Homo sapiens, OE33, 6μM, read-out: % cell killing /control
outcome measure: cytotoxicity at 6 µM (%)
# output: bare number, implied unit %

Consider the reported cytotoxicity at 6 µM for these molecules:
INSERT INTO results (molecular_string, outcome_measure, value_reported) VALUES
  ('CC[C@@H]1C(=O)N(C)c2cnc(Nc3ccc(C(=O)NC4CCN(C)CC4)cc3OC)nc2N1C1CCCC1', 'cytotoxicity at 6 µM', 77.6),
  ('CN(C)Cc1c(C(=O)NCCOc2ccc(C(=O)NO)cc2)oc2ccccc12', 'cytotoxicity at 6 µM', 46);

Exam item: Identify measured cytotoxicity at 6 µM associated with "COc1ccc(-c2nc(N3CCOCC3)c3sc(CN(C)c4ncc(C(=O)NO)cn4)cc3n2)cn1"
Marked response: 99.4

Data origin: paper PMC6136712
